Hi there, I'd appreciate the recorded melting point for every entry that follows.

I'd like to know its melting point. The compound in question is "CNC(=O)c1n[nH]cc1NC(=O)c1ccccn1" 248 to 249 °C

Query (compound): "CC(=O)CNC(=O)Nc1cc(-c2c(-c3ccc(F)c(C)c3)nc3cccnn23)ccn1" ; field requested: melting point 208 to 209 °C

For "Cc1nnc2n1-c1sc(C#CCn3c(=O)c4c(ncn4C)n(C)c3=O)cc1C(c1ccccc1Cl)=NC2" , what is its reported melting point? 277 to 280 °C

Entry under review: Cc1ccc(OC2COc3ccc(OCc4ccc5ccccc5n4)cc3C2O)cn1 (stereo not given) . Reported melting point? 134 to 136 °C

Fill in: melting point of "CSc1nc2ccc(Br)cc2o1" is ___ 95 to 96 °C

Give the measured melting point of CC1(C)Oc2cc([N+](=O)[O-])sc2C(N2CCCC2=O)C1O (stereo not given) . 214 to 217 °C

I have this compound here, "O=C1COc2cc3[nH]c(C(=O)O)cc3cc2N1" , and I need its recorded melting point. 231 to 237 °C

Report melting point for "CCOc1cc2ncc(C#N)c(Nc3ccc4cc[nH]c4c3)c2cc1OCC" please. 128 to 130 °C

Param item = "CCOC(=O)C(=O)Nc1cccc(OCCO)c1C(N)=O" ; retrieve measured melting point. 146 to 148 °C

If you can, please state the reported melting point value of "Cc1cc(N2CCNCC2)ccn1" . 93 to 94 °C

* * *

parameter: melting point

Given the compound CC(C)n1c(=O)n(C)c(=O)c2c(S(=O)CCCO)n(C3Cc4ccccc4C3)cc21 (stereo not given) , what is its reported melting point? 164 to 165 °C

Give its melting point value. Item: "CC(C)(C)[Si](C)(C)OCc1cccc(-c2ccc3nc(Cl)cn3c2)c1" 120 to 123 °C

Any idea what its melting point is? The compound is "OCCc1coc(-c2ccc3ccccc3c2)n1" 96 to 98 °C

Dear colleague, I am looking for the recorded melting point of the following compound: "CN(C)Cc1ccc2nc(NC(=O)c3ccc(C(C)(C)C)cc3)cn2c1" 236 to 237 °C

Entry CCCn1c(=O)cc2n(c1=O)CC(CSc1ccccc1)S2 (stereo not given) : reported melting point = ? 88 to 89 °C

melting point lookup needed for "COc1ccc(-c2c[nH]c(=S)n2O)cc1" , thanks. 150 °C

Given the entry CC(=O)NC(CSC(=O)c1ccccc1OC(C)=O)C(=O)O (stereo not given) , report its measured melting point. 120 to 122 °C

Could you share which melting point value was measured for "CCOC(=O)N1CCC(Nc2nc3cccnc3n2Cc2ccc(CO)o2)CC1" ? 148 °C

Which measured melting point value corresponds to "NS(=O)(=O)c1ccc(-n2nc(CC(=O)O)cc2-c2ccc(Cl)cc2)cc1" ? 120 to 122 °C

For the compound CC1Cc2ccc(Br)cc2C(c2ccc([N+](=O)[O-])cc2)=NN1 (stereo not given) , what melting point is on record? 125 to 130 °C

Suppose we examine the compound "FC(F)(F)c1cccc(N2CCN(c3nc4cccc5c4n3CCC5)CC2)c1" ; what melting point value has been reported? 158 to 159 °C

If you can, please state the reported melting point value of N#Cc1ccc(-c2cnc(F)c(OC3SCC(O)C(O)C3O)c2)cc1 (stereo not given) . 220 °C

Tell me the measured melting point of "CN1CCN(CCCNc2sc(-c3cc[nH]n3)c3c2C(=O)CC(C)(C)C3)CC1" , please. 160 to 163 °C

I would be grateful if you could share the reported melting point for "CCCCCCCCCCCCCCCCn1c2cc(Br)ccc2c2ccc(Br)cc21" . 85 to 86 °C

What melting point value was documented for this compound, CC(C)(C)C(F)(F)c1ccc(C[C@@H](NC(=O)c2cccc3c(Cl)cccc23)[C@@H](O)c2cccc(Cl)c2)cc1 (racemic) ? 99 to 101 °C

Record request: melting point value, item COc1ccc(C(C)N(C)CCCCOc2ccc(S(=O)(=O)c3c(C(C)C)cn4ccccc34)cc2)cc1OC (stereo not given) 84 to 86 °C

Give the measured melting point of O=C1NC(=O)C(S(=O)(=O)c2ccc3ccccc3c2)S1 (stereo not given) . 196 to 197 °C

Would you kindly share the measured melting point for Cc1ccc(S(=O)(=O)OCC(O)(CC(C)(C)c2ccccc2)C(F)(F)F)cc1 (stereo not given) ? 78 °C

Please look up its melting point: "COC(=O)c1cc(C#N)cn1CC(=O)c1ccccc1" 169 to 172 °C

// returns reported melting point for input "CC1(C)Cc2c(ccc3c2C(c2cccc(-c4ccc(C(N)=O)cc4)c2)=NCC3(C)C)O1" 284 to 296 °C

* * *

Field: melting point. Provide a value for each of the compounds that follow.

What measured melting point goes with COc1cc2nc(NCCNCC(O)COc3ccccc3)nc(N)c2cc1OC (stereo not given) ? 122 to 124 °C

Item "CCCCCCCCCCCCCCOc1ccc(CN(C(=O)NC)c2cccc(COC(=O)NC)c2)cc1" has what recorded melting point? 107 to 109 °C

For the compound "CCC[C@H](N[C@@H](C)C(=O)N1N=C(C(C)(C)C)S[C@H]1C(=O)O)C(=O)OCC" , what melting point is on record? 183 to 185 °C

Consider the compound "Cc1nc(N2CCN(Cc3cccc(C(F)(F)F)c3)C2=O)sc1C(=O)NCc1cccnc1" and give its measured melting point. 175 to 176 °C

// returns reported melting point for input "CSc1ncccc1C(=O)CC(=O)C1CC1" 87 to 89 °C

I have this compound here, "Cc1cc(CNC(=O)c2cc(-c3ccc(C(C)(C)C)cc3)nn2CCN2CCOCC2)ccc1OC(C)(C)C(=O)O" , and I need its recorded melting point. 140 °C

Please report the recorded melting point for "COCOc1ccc(-c2ccc(C=C3SC(=O)NC3=O)cc2)cc1C12CC3CC(CC(C3)C1)C2" . 253 to 254 °C

Item "COC(=O)c1ccc(Cc2c[nH]c3ccc([N+](=O)[O-])cc23)c(OC)c1" has what recorded melting point? 153 to 155 °C

Entry under review: "CCCCCCc1ccc(-c2ccc(C(=O)Oc3ccc(C(=O)O)c(Cl)c3)cc2)cc1" . Reported melting point? 164 to 166 °C

Which measured melting point value corresponds to "CCc1nnc(-c2ccc(C)c(-c3ccc(F)cc3)n2)nc1CC" ? 108 °C

Please give the measured melting point for this compound: "CNc1cc(OC)c(C(=O)NCC23CCCN(CCC2)C3)cc1Cl" 188 to 190 °C

Data request, read-out melting point, for "c1ccc2c(OCCCCCCCCOc3cccc4ccccc34)cccc2c1" 60 °C

Entry "Cn1ccc2ncnc(Oc3ccc(NC(=O)Nc4cccc(OC(F)(F)F)c4)c(Cl)c3)c21" : reported melting point = ? 171 to 174 °C

Could you share which melting point value was measured for "CCOc1ccccc1C(=O)C=Cc1ccc2ccccc2c1" ? 96 to 97 °C

Could you tell me which melting point is on file for COCOCC(=O)C1CCC2C3CCC4=CC(=O)CCC4(C)C3CCC12C (stereo not given) ? 195 °C

Any idea what melting point was measured for "N#CCc1c[nH]c2cccnc12" ? 201 to 202 °C

For the compound COC(=O)CC(NC(=O)C1CC=CCC1)C(C)=O (stereo not given) , what melting point is on record? 69 to 70 °C

Dear colleague, I am looking for the recorded melting point of the following compound: CCCCCc1ccc(-c2ccc(-c3c(C(=O)OC)c4c(c5ccccc35)OC(c3ccccc3)(c3ccc(N(CC)CC)cc3)C=C4)cc2)cc1 (stereo not given) 177 to 178 °C

Consider the compound shown here: CN1C(c2ccncc2)CC(=O)CC1c1ccncc1 (stereo not given) What is its recorded melting point? 103 to 106 °C

Name the recorded melting point for "O=S(=O)(Nc1ccc(Oc2cccc3cccnc23)c(Cl)c1)c1cccc(C(F)(F)F)c1" . > 245 °C

Looking for the measured melting point of "COc1ccc(C(=O)Cl)cc1OC(=O)c1ccccc1" , can you help? 120 to 122 °C

Reported melting point for "O=C(c1ccc(Nc2ccncc2)cc1)N1CCCCC1" : what is it? 170 to 172 °C

Which value of melting point has been reported for "N#CCCn1cccc1C1=CC(=O)c2ncccc2C1=O" in the records? 166 to 167 °C

// melting point lookup, key: "CSc1nn(-c2c(Cl)cc(C(F)(F)F)cc2Cl)c(N)c1C(=O)c1cc(C)ccc1C" 130 to 132 °C

Can you share its melting point? I mean this compound: "O=C(Nc1cccc2ccccc12)N1C(=O)C2(CCCCC2)NC12CCCCC2" 157 to 160 °C

Which value of melting point has been reported for "O=c1oc2ccc(-c3ccc(F)cc3F)cc2c(=O)n1-c1ccc(C(F)(F)F)cc1" in the records? 209 to 210 °C

Need melting point, item COc1ccc2c3c(c4cc(OC)c(OC)cc4c2c1)CC1CCCCN1C3 (stereo not given) 193 to 195 °C

Endpoint output: melting point of "Cc1oc(-c2ccco2)nc1COc1ccc(CO)cn1" . Value? 120 to 121 °C

Give the measured melting point of "C=CCOc1ccc(Cl)cc1C(=O)OC" . 25 to 26 °C

Requested read-out: melting point. Entry: COc1cc(OC)c([C@@H]2CCCC[C@H]2O)c(O)c1C(C)=O (relative stereo) 162 to 164 °C

Consider the compound shown here: "O=C1c2cc(Br)ccc2-n2c1nc1ccccc1c2=O" What is its recorded melting point? 288 to 290 °C

What melting point value was documented for this compound, "Cc1ccc(C)c(OCc2ccccc2C(=O)c2ccnn2C)c1" ? 88 to 89 °C

Item under review: "COc1cc(OC)nc(Oc2ccnc3cc(Cl)ccc23)n1" . Reported melting point? 119 to 120 °C

Return reported melting point; argument: "O=C(O)c1ccc2c(c1)S(=O)(=O)c1ccccc1CC2" 248 to 250 °C

Reported melting point, compound "CCOC(=O)c1cccc(C(=O)O)c1" : ____ 131 to 132 °C

Which melting point is listed for OC(CNC1CCc2ccccc2C1)COc1cccc(C(F)(F)F)c1 (stereo not given) ? 84 to 89 °C

Item under review: "CS(=O)(=O)OCC1CCN(C(=O)OCc2ccccc2)CC1" . Reported melting point? 72 to 74 °C

I am curious: what melting point value has been reported for "NNC(=O)C[C@H](O)COCc1ccccc1" ? 96.9 °C

For the compound shown here, "C=CCc1cccc2c(=O)cc(-c3ccc(F)cc3)oc12" , give the reported melting point. 98 to 100 °C

Requested read-out: melting point. Entry: "COc1ccc(N(CC(=O)O)c2ccccc2)c(C(=O)O)c1" 158 to 161 °C
